Target: human recombinant TACE (TNFα converting enzyme) (human) (UniProt P78536)
Listed here are binders together with their documented IC50 of inhibition of human TACE activity (SensoLyte 520 TACE fluorimetric kit).
A number alone suffices; assume nM.

N‐PEG (PEGylated N‐TIMP3) (domain or fragment, PEG, size and site not stated) CTCSPSHPQDAFCNSDIVIRAKVVGKKLVKEGPFGTLVYTIKQMKMYRGFTKMPHVQYIHTEASESLCGLKLEVNKYQYLLTGRVYDGKMYTGLCNFVERWDQLTLSQRKGLNYRYHLGC ... 197

Q: What value of IC50 of inhibition of human TACE activity (SensoLyte 520 TACE fluorimetric kit) has been reported for the following binder? WT‐HSA (wild‐type TIMP3 fused with human serum albumin) (protein) CTCSPSHPQDAFCNSDIVIRAKVVGKKLVKEGPFGTLVYTIKQMKMYRGFTKMPHVQYIHTEASESLCGLKLEVNKYQYLLTGRVYDGKMYTGLCNFVERWDQLTLSQRKGLNYRYHLGCNCKIKSCYYLPCFVTSKNECLWTDMLSNFGYPGYQSKHYACIRQKGGYCSWYRGWAPPDKSIINATDP
A: 12.1

Q: What value of IC50 of inhibition of human TACE activity (SensoLyte 520 TACE fluorimetric kit) has been reported for the following binder? TIMP3v82 (H55N/Q57T/K71N/E73T/D87N/K89T/R115T) (natural protein, additional glycosylation sites, site‐specific glycosylation confirmed by mass spec analysis (data not shown); endogenous glycosylation site at Asn184) CTCSPSHPQDAFCNSDIVIRAKVVGKKLVKEGPFGTLVYTIKQMKMYRGFTKMPNVTYIHTEASESLCGLNLTVNKYQYLLTGRVYNGTMYTGLCNFVERWDQLTLSQRKGLNYTYHLGCNCKIKSCYYLPCFVTSKNECLWTDMLSNFGYPGYQSKHYACIRQKGGYCSWYRGWAPPDKSIINATDP
A: 29
